Measured values drawn from PubChem BioAssay AID2060899 for this set.

# Test system: 565726-208-R1-J5-PDC complex spheroids, growth inhibition
# Experiment Summary: Anticancer human tumor 565726-208-R1-J5-PDC patient-derived pancreatic adenocarcinoma cell line growth inhibition [RAS]
# Recorded Conditions: second compound 0.0316 µM; first compound 1 µM; active compounds read low
Readout: viability, T/C (%)
Kindly answer with a numeric value in %, unit omitted.

Memo: Nc1ccn(C2OC(CO)C(O)C2(F)F)c(=O)n1 (stereo not drawn) + C#Cc1c(F)ccc2cc(O)cc(-c3ncc4c(N5CC6CCC(C5)N6)nc(OCC56CCCN5CC(F)C6)nc4c3F)c12 , reported viability, T/C: 43.4

Memo: C=CC(=O)N1CCN(c2nc(OCC3CCCN3C)nc3c(F)c(-c4nc(N)cc(C)c4C(F)(F)F)c(Cl)cc23)C(C)C1 (stereo not drawn) + C#Cc1c(F)ccc2cc(O)cc(-c3ncc4c(N5CC6CCC(C5)N6)nc(OCC56CCCN5CC(F)C6)nc4c3F)c12 , reported viability, T/C: 104

Memo: C[C@@H](NC(=O)c1ncnc(N)c1Cl)c1ncc(C(=O)Nc2cc(C(F)(F)F)c(Cl)cn2)s1 + C=CC(=O)N1CCN(c2nc(OCC3CCCN3C)nc3c(F)c(-c4nc(N)cc(C)c4C(F)(F)F)c(Cl)cc23)C(C)C1 , reported viability, T/C: 99.3

----------
# Tested on: 565726-208-R1-J5-PDC complex spheroids, growth inhibition
# Experiment Summary: Anticancer human tumor 565726-208-R1-J5-PDC cell line growth inhibition [RAS]; active means viability on the fitted dose curve at most 10% of control; inactive means the rest;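 further: spheroids exposed to compounds for seven days before readout; 100% = DMSO vehicle control viability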
# Recorded Conditions: second compound 3.16 µM; first compound 10 µM
In this exercise, the only acceptable responses are YES = active, NO = inactive

Per the records of this test, what outcome belongs to Cc1nc(N2CCC3(CC2)COC(C)C3N)c(CO)nc1Sc1ccnc(N)c1Cl (stereo not drawn) + C#Cc1c(F)ccc2cc(O)cc(-c3ncc4c(N5CC6CCC(C5)N6)nc(OCC56CCCN5CC(F)C6)nc4c3F)c12 ?
NO

Per the records of this test, what outcome belongs to CC1(O)CCCC1n1c(=O)c(C(F)F)cc2cnc(NC3CCN(S(C)(=O)=O)CC3)nc21 (stereo not drawn) + C#Cc1c(F)ccc2cc(O)cc(-c3ncc4c(N5CC6CCC(C5)N6)nc(OCC56CCCN5CC(F)C6)nc4c3F)c12 ?
YES

Per the records of this test, what outcome belongs to NC1c2ccccc2OC12CCN(c1cnc3c(N4CCCc5ncccc54)n[nH]c3n1)CC2 (stereo not drawn) + C#Cc1c(F)ccc2cc(O)cc(-c3ncc4c(N5CC6CCC(C5)N6)nc(OCC56CCCN5CC(F)C6)nc4c3F)c12 ?
NO

----------
# Tested on: 565726-208-R1-J5-PDC complex spheroids, growth inhibition
# Experiment Summary: Anticancer human tumor 565726-208-R1-J5-PDC cell line growth inhibition [RAS];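 further: spheroids exposed to compounds for seven days before readout; 100% = DMSO vehicle control viability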
# Recorded Conditions: second compound 0.1 µM; first compound 0.03 µM; active compounds read low
Readout: viability, T/C

Memo: CC1(C)CCC(Nc2ncc(C(F)(F)F)c(-c3c[nH]c4c(P(C)(C)=O)c(C#N)ccc34)n2)CN1 (centres undefined) + C=CC(=O)N1CCN(c2nc(OCC3CCCN3C)nc3c(F)c(-c4nc(N)cc(C)c4C(F)(F)F)c(Cl)cc23)C(C)C1 , reported viability, T/C: 36.8%

Memo: CCc1c2c(nc3ccc(O)cc13)-c1cc3c(c(=O)n1C2)COC(=O)[C@]3(O)CC + C=CC(=O)N1CCN(c2nc(OCC3CCCN3C)nc3c(F)c(-c4nc(N)cc(C)c4C(F)(F)F)c(Cl)cc23)C(C)C1 , reported viability, T/C: 18.2%

Memo: CC1(C)CCC(Nc2ncc(C(F)(F)F)c(-c3c[nH]c4c(P(C)(C)=O)c(C#N)ccc34)n2)CN1 (centres undefined) + C#Cc1c(F)ccc2cc(O)cc(-c3ncc4c(N5CC6CCC(C5)N6)nc(OCC56CCCN5CC(F)C6)nc4c3F)c12 , reported viability, T/C: 35.6%

Memo: CCc1c2c(nc3ccc(O)cc13)-c1cc3c(c(=O)n1C2)COC(=O)[C@]3(O)CC + C#Cc1c(F)ccc2cc(O)cc(-c3ncc4c(N5CC6CCC(C5)N6)nc(OCC56CCCN5CC(F)C6)nc4c3F)c12 , reported viability, T/C: 19.4%
